# CTG-3D luminescence at 96 h values compiled below
test system: HCI-012 (organoid from a breast cancer xenograft); test: CTG-3D luminescence at 96 h relative to day-0 seeding control (ratio to day 0); higher = more growth / less cytotoxicity; PDxO 3D drug screen (set 2), 96 h, CTG-3D normalised to day-0 seeding control.; conditions: 10 µM; days in culture: 243

{"columns": ["molecule", "CTG-3D luminescence at 96 h"],
 "data": [
  ["CCOc1ccn(-c2ccc(F)cc2)c(=O)c1C(=O)Nc1ccc(Oc2ccnc(N)c2Cl)c(F)c1", 3.71],
  ["O=C(c1cc(Cc2n[nH]c(=O)c3ccccc23)ccc1F)N1CCN(C(=O)C2CC2)CC1", 1.74],
  ["CC(C)n1nc(-c2ccc3oc(N)nc3c2)c2c(N)ncnc21", 0.522],
  ["COc1cccc2c1C(=O)c1c(O)c3c(c(O)c1C2=O)C[C@@](O)(C(=O)CO)C[C@@H]3O[C@H]1C[C@H](N)[C@@H](O)[C@H](C)O1 [epirubicin]", 0.0739]
]}

Next up:
So, CO[C@H]1C[C@@H]2CC[C@@H](C)[C@@](O)(O2)C(=O)C(=O)N2CCCC[C@H]2C(=O)O[C@H]([C@H](C)C[C@@H]2CC[C@@H](O)[C@H](OC)C2)CC(=O)[C@H](C)/C=C(\C)[C@@H](O)[C@@H](OC)C(=O)[C@H](C)C[C@H](C)/C=C/C=C/C=C/1C ? Its CTG-3D luminescence at 96 h was 1.75

----------
test system: HCI-010 (organoid from a breast cancer xenograft); assay: CTG-3D luminescence at 96 h relative to day-0 seeding control (ratio to day 0); higher = more growth / less cytotoxicity; PDxO 3D drug screen, 96 h, CTG-3D normalised to day-0 seeding control.; conditions: 625 fM; days in culture: 52
metric_name: CTG-3D luminescence at 96 h
Lab note: record just the number, no unit beside it.

{"columns": ["compound", "measured_value"],
 "data": [
  ["O=C(O)C1(C(=O)O)CCC1.[NH2-].[NH2-].[Pt+2]", 1.82],
  ["CC(C)n1nc(-c2ccc3oc(N)nc3c2)c2c(N)ncnc21", 2.4]
]}

Next up:
Record C[C@]12CC[C@@H]3c4ccc(O)cc4C[C@@H](CCCCCCCCC[S+]([O-])CCCC(F)(F)C(F)(F)F)[C@H]3[C@@H]1CC[C@@H]2O (stereo partly specified) has HCI-010 CTG-3D luminescence at 96 h equal to 2.06

----------
tested on: HCI-012; assay: CTG-3D luminescence at 96 h relative to day-0 seeding control (ratio to day 0); higher = more growth / less cytotoxicity; PDxO 3D drug screen, 96 h, CTG-3D normalised to day-0 seeding control.; conditions: 0.00025 µM; days in culture: 201
metric_name: CTG-3D luminescence at 96 h
Lab note: record just the number, no unit beside it.

A selection of reference data follows.
{"columns": ["item_smiles", "CTG-3D luminescence at 96 h"],
 "data": [
  ["C/C=C1\\NC(=O)[C@H]2CSSCC/C=C/[C@H](CC(=O)N[C@H](C(C)C)C(=O)N2)OC(=O)[C@H](C(C)C)NC1=O", 0.795],
  ["C[C@H](NC(=O)CCC(F)(F)F)C(=O)N[C@@H]1C(=O)N(CCO)c2ncccc2-c2ccccc21", 1.94],
  ["C=CC(=O)N1CCC[C@@H](n2nc(-c3ccc(Oc4ccccc4)cc3)c3c(N)ncnc32)C1", 1.92],
  ["CCc1c2c(nc3ccc(O)cc13)-c1cc3c(c(=O)n1C2)COC(=O)[C@]3(O)CC", 1.99],
  ["CNC(=O)c1cccc(-c2ccc3c(N4CCOC[C@@H]4C)nc(N4CCOC[C@@H]4C)nc3n2)c1", 1.99]
]}

Next up:
Record CC[C@H](NC(=O)[C@H](C)NC)C(=O)N1C[C@@H](O)C[C@H]1Cc1c(-c2[nH]c3cc(F)ccc3c2C[C@@H]2C[C@H](O)CN2C(=O)[C@H](CC)NC(=O)[C@H](C)NC)[nH]c2cc(F)ccc12 has HCI-012 CTG-3D luminescence at 96 h equal to 2.24

Data origin, for the record: the supplement of paper PMC8882468
